Test system: 556581-035-R-J1-PDC complex spheroid growth;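 further: spheroids exposed to agents for 7 days before viability read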
Test: Anticancer human tumor 556581-035-R-J1-PDC patient-derived ovarian carcinoma cell line growth inhibition [Asc]
Conditions: curve of first compound; second compound 0.0949 µM
endpoint label: IC50

compound	experimental result
C#Cc1c(F)ccc2cc(O)cc(-c3ncc4c(N5CC6CCC(C5)N6)nc(OCC56CCCN5CC(F)C6)nc4c3F)c12 (stereo not given) + CCN1C(C(=O)NC23CCC(C(=O)O)(CC2)CC3)C(c2cccc(Cl)c2F)C2(C(=O)Nc3cc(Cl)ccc32)C12CCCCC2	> 10000 nM
CNC(C)C(=O)NC1CN(S(=O)(=O)c2cccc(S(=O)(=O)N3CCC4CCC(C(=O)NC(c5ccccc5)c5ccccc5)N4C(=O)C(NC(=O)C(C)NC)C3)c2)CCC2CCC(C(=O)NC(c3ccccc3)c3ccccc3)N2C1=O (stereo not given) + CCN1C(C(=O)NC23CCC(C(=O)O)(CC2)CC3)C(c2cccc(Cl)c2F)C2(C(=O)Nc3cc(Cl)ccc32)C12CCCCC2	> 1000 nM
CCN1CCN(Cc2ccc(Nc3ncc(F)c(-c4cc(F)c5nc(C)n(C(C)C)c5c4)n3)nc2)CC1 + CCN1C(C(=O)NC23CCC(C(=O)O)(CC2)CC3)C(c2cccc(Cl)c2F)C2(C(=O)Nc3cc(Cl)ccc32)C12CCCCC2	> 1000 nM
NC(=O)C(=Cn1cnc(-c2cc(C(F)(F)F)cc(C(F)(F)F)c2)n1)c1cncnc1 + CCN1C(C(=O)NC23CCC(C(=O)O)(CC2)CC3)C(c2cccc(Cl)c2F)C2(C(=O)Nc3cc(Cl)ccc32)C12CCCCC2	> 300 nM
NC1CCC(NC2CC2c2ccccc2)CC1 (stereo not given) + CCN1C(C(=O)NC23CCC(C(=O)O)(CC2)CC3)C(c2cccc(Cl)c2F)C2(C(=O)Nc3cc(Cl)ccc32)C12CCCCC2	> 100 nM

Origin of values: PubChem BioAssay AID1963450
